target: Sodium-dependent dopamine transporter (Homo sapiens, UniProt Q01959); assay: Inhibition of re-uptake of [3H]-dopamine at human DAT expressed in HEK293 cells preincubated for 5 mins followed by [3H]-dopamine addition measured after 1 min by liquid scintillation counting; assay type: cell-based; details: read-out: IC50
Sequence (Q01959 whole entry): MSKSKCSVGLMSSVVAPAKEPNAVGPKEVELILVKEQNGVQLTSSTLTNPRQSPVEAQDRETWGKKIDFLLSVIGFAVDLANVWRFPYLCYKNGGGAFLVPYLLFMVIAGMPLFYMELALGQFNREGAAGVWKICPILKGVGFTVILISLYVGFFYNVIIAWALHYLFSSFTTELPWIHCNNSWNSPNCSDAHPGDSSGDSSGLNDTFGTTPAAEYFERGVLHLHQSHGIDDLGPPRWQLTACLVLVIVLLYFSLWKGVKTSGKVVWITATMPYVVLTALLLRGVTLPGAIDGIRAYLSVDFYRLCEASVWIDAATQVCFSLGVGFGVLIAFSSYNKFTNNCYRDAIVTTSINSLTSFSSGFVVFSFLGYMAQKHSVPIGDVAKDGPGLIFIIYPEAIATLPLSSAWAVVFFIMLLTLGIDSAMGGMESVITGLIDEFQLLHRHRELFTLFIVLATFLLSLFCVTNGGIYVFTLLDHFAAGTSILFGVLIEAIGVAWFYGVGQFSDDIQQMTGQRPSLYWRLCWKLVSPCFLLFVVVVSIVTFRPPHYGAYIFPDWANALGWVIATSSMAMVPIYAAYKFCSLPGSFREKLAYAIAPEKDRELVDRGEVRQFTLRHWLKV
Criterion met if IC50 is below 40 µM. Criterion not met if not; exact matches included in Criterion not met.

compound: Cc1scc(C[S+]([O-])C(c2ccccc2)c2ccccc2)c1C (stereo not given)
class: Criterion not met
//
compound: [O-][S+](Cc1nc(C(F)(F)F)no1)C(c1ccccc1)c1ccccc1 (stereo not given)
class: Criterion not met
//
compound: [O-][S+](Cc1cc(C2CC2)on1)C(c1ccccc1)c1ccccc1 (stereo not given)
class: Criterion met
//
compound: [O-][S+](Cc1cccs1)C(c1ccc(F)cc1)c1ccc(F)cc1 (stereo not given)
class: Criterion met
//
compound: CC(C)c1nnsc1C[S+]([O-])C(c1ccccc1)c1ccccc1 (stereo not given)
class: Criterion not met
//
compound: Cc1cc(O)nc(C[S+]([O-])C(c2ccccc2)c2ccccc2)n1 (stereo not given)
class: Criterion not met
//
compound: Cc1nc(O)cc(C[S+]([O-])C(c2ccccc2)c2ccccc2)n1 (stereo not given)
class: Criterion met
//
compound: [O-][S+](Cc1cccs1)C(c1ccccc1)c1ccc(Br)cc1 (stereo in doubt; 11g)
class: Criterion met
//
compound: [O-][S+](Cc1ccsc1)C(c1ccccc1)c1ccccc1 (stereo not given)
class: Criterion met
//
compound: Cc1noc(C[S+]([O-])C(c2ccccc2)c2ccccc2)n1 (stereo not given)
class: Criterion not met
//
compound: [O-][S@@+](Cc1cccs1)[C@@H](c1ccccc1)c1ccc(Br)cc1
class: Criterion met
//
compound: [O-][S+](Cc1cccs1)C(c1ccccc1)c1ccc(Br)cc1 (stereo in doubt; 11c)
class: Criterion met
//
compound: Cc1cnc(C[S+]([O-])C(c2ccccc2)c2ccccc2)nc1 (stereo not given)
class: Criterion not met
//
compound: [O-][S+](Cc1ccsc1Br)C(c1ccccc1)c1ccccc1 (stereo not given)
class: Criterion met
//
compound: [O-][S+](Cc1cccs1)C(c1ccccc1)c1ccccc1 (stereo not given)
class: Criterion met
//
compound: [O-][S+](Cc1ccncc1)C(c1ccccc1)c1ccccc1 (stereo not given)
class: Criterion not met
//
compound: [O-][S+](Cc1sccc1Cl)C(c1ccccc1)c1ccccc1 (stereo not given)
class: Criterion met
//
compound: COc1cc(C)nc(C[S+]([O-])C(c2ccccc2)c2ccccc2)n1 (stereo not given)
class: Criterion not met
//
compound: [O-][S@+](Cc1cccs1)[C@H](c1ccccc1)c1ccc(Br)cc1
class: Criterion met
//
compound: [O-][S+](Cc1csc(Br)c1)C(c1ccccc1)c1ccccc1 (stereo not given)
class: Criterion met
//
compound: Cc1ccc(C(c2ccccc2)[S+]([O-])Cc2cccs2)cc1 (stereo not given)
class: Criterion met
//
compound: Cc1cc(C[S+]([O-])C(c2ccccc2)c2ccccc2)nc(C)n1 (stereo not given)
class: Criterion not met
//
compound: [O-][S+](Cc1cccs1)C(c1ccc(Cl)cc1)c1ccc(Cl)cc1 (stereo not given)
class: Criterion met
//
compound: [O-][S+](Cc1ccc(Cl)s1)C(c1ccccc1)c1ccccc1 (stereo not given)
class: Criterion met
//
compound: COC1NN=C(C[S+]([O-])C(c2ccccc2)c2ccccc2)S1 (stereo not given)
class: Criterion not met
//
compound: [O-][S+](Cc1cc(Br)cs1)C(c1ccccc1)c1ccccc1 (stereo not given)
class: Criterion met
//
compound: O=c1[nH]nc(C[S+]([O-])C(c2ccccc2)c2ccccc2)s1 (stereo not given)
class: Criterion met
//
compound: Cc1ccc(C(c2ccc(C)cc2)[S+]([O-])Cc2cccs2)cc1 (stereo not given)
class: Criterion met
//
compound: [O-][S+](Cc1cccs1)C(c1ccccc1)c1ccc(Br)cc1 (stereo in doubt; 11h)
class: Criterion met
